Reported CC50 values for a set of compounds
Test system: K562
Experiment: Cytotoxic activity, MTT method, 48 h
Format: cell-based
measuredProperty: CC50 (µM)

1. CC(=O)OCC=C(C)CC[C@@H]1[C@@]2(C)CCCC(C)(C)[C@@H]2CC[C@@]1(C)O [Label-13-ene-8, 15-yl acetate, labd-13-ene,8α-ol,15-yl acetate] | 200
2. CC(=CCO)CC[C@@H]1[C@@]2(C)CCCC(C)(C)[C@@H]2CC[C@@]1(C)O [Label-13-ene-8, 15 diol, labd-13-ene-8α,15-diol] | 200
3. C=C[C@](C)(O)CC[C@@H]1[C@@]2(C)CCCC(C)(C)[C@@H]2CC[C@@]1(C)O [Label-14-ene-8, 13 diol, labd-14-ene-8,13-diol] | 79.3
